molecular target: Growth hormone secretagogue receptor type 1 (Homo sapiens, UniProt Q92847); test: Receptor Binding Studies and GHS-R Ca2+ Flux Assay; settings: pH 7.4; 22 °C
Sequence (Q92847 whole entry): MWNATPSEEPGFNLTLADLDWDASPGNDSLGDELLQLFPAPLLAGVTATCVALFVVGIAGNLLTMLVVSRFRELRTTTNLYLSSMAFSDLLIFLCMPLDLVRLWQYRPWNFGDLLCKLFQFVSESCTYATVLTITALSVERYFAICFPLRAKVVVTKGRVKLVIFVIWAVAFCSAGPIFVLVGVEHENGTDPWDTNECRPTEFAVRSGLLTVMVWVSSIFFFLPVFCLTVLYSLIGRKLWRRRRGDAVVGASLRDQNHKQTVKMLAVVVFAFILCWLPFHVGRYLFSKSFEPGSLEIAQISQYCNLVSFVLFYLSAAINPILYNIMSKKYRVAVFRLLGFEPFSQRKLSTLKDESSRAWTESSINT
experimental endpoint: IC50 (nM)

Worked cases, answers included:
Nc1nc(N)c(-c2ccc(NCc3ccc(C(F)(F)F)cc3)cc2)c(COCc2ccccc2)n1 | 97
CCc1nc(N)nc(N)c1-c1ccc(NCc2ccc(C#N)cc2)cc1 | 780

[P] CCc1nc(N)nc(N)c1-c1ccc(NCc2cc(F)c(S(C)(=O)=O)c(F)c2)cc1
[Q] CCc1nc(N)nc(N)c1-c1ccc(NCc2ccc(S(C)(=O)=O)cc2)cc1
// max by IC50 over [ P , Q ] Let me know the label of the one you choose. P

[I] Nc1nc(N)c(-c2ccc(NCc3ccc(S(=O)(=O)C(F)(F)F)cc3)cc2)c(COCc2ccccc2)n1
[II] Nc1nc(N)c(-c2ccc(NCc3ccc([N+](=O)[O-])cc3)cc2)c(COCc2ccccc2)n1
[III] CC(=O)c1ccc(CNc2ccc(-c3c(N)nc(N)nc3COCc3ccccc3)cc2)cc1
Thanks in advance: please rank these 3 entries by IC50, highest to lowest. Kindly provide the labels arranged according to the requested ordering. I, III, II
